Sourced from patent US6858638B2

Target: human IGF1R cytoplasmic domain (Homo sapiens, UniProt P08069)
Construct: The human IGF1R cytoplasmic domain was cloned; made in house; host or cells: SF21 insect cells (baculovirus)
Sequence (P08069 960-1367 limits assumed): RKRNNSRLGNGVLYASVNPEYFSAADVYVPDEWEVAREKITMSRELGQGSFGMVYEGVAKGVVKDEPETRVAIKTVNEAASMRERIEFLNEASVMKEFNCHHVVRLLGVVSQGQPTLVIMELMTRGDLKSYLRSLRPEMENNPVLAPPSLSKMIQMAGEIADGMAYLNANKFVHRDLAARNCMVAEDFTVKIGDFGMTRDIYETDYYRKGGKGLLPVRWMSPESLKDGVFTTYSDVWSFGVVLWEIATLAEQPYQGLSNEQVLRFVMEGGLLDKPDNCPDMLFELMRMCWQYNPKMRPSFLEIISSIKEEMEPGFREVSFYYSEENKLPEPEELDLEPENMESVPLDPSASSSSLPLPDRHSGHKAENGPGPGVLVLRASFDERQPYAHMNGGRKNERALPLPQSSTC
Assay: IGF1R autophosphorylation inhibition, time resolved fluorescence (HTRF) assay
Assay type: biochemical
Settings: 10 μM; read-out: IGF1R % inhib at 10 μM
Method: The inhibitory activity of the compounds on IGF1R is determined by measuring the inhibition of the autophosphorylation of the enzyme using a time resolved fluorescence (HTRF) assay. […] The kinase activity was determined by incubating the enzyme with various concentrations of test compound in a 50 mM Hepes buffer, pH 7.5, containing 5 mM MnCl2, 50 mM NaCl, 3% glycerol, 0.025% Tween 20 and 120 mM of ATP. […]
Catalogue of inhibition at 10 µM readings, one per entry.
API: value field is a number in %; no unit string.

### Prompt # inhibition at 10 µM lookup, item Cc1ccc(-c2n[nH]c3ccc(NS(=O)(=O)c4ccccc4S(C)(=O)=O)cc23)cc1F [Example 224]
### Response 70

### Prompt Which measured inhibition at 10 µM value corresponds to CS(=O)(=O)c1ccccc1S(=O)(=O)Nc1ccc2[nH]nc(C(=O)NC3CCCCC3)c2c1 [Example 29] ?
### Response 96

### Prompt Name the reported inhibition at 10 µM value associated with the compound O=[N+]([O-])c1ccccc1S(=O)(=O)Nc1ccc2[nH]nc(-c3ccccc3)c2c1 [Example 113]
### Response 81

### Prompt Return reported inhibition at 10 µM; argument: CS(=O)(=O)c1ccccc1S(=O)(=O)Nc1ccc2[nH]nc(-c3ccc(Cl)cc3)c2c1 [Example 30]
### Response 96

### Prompt Need inhibition at 10 µM, item O=S(=O)(Nc1ccc2[nH]nc(-c3cc4ccccc4[nH]3)c2c1)c1cccc(F)c1 [Example 85]
### Response 99

### Prompt What measured inhibition at 10 µM goes with CS(=O)(=O)c1ccccc1S(=O)(=O)Nc1ccc2[nH]nc(-c3cccc(Cl)c3)c2c1 [Example 177] ?
### Response 80

### Prompt What inhibition at 10 µM value was documented for this compound, Cc1ccc(-c2n[nH]c3ccc(NS(=O)(=O)c4ccccc4S(C)(=O)=O)cc23)cc1N [Example 204] ?
### Response 78
